- Test system: IL-6 production (IL−6産生)
- assay-overview: 薬理試験5 IL−6産生抑制作用 (inhibition of IL-6 production, human whole blood)
- Type: cell-based
- experimental-parameters: same method as pharmacological test 3 (human whole blood, LPS, 37℃, 24 h)
pIC50: −log10 of the molar value.
parameter: pIC50

pIC50 in this record for CCOc1ccc(-c2nc(-c3cccc(C(=O)O)n3)cs2)cc1OCC [実施例2] : ≤ 4.00

Ref: patent JP2006083192A
